Numbers sourced from ChEMBL document CHEMBL1157938.

test system: A549; test: Cytotoxicity against human A549 cells after 48 hrs by WST8 assay; type: functional; settings: A549, 48 h
Could you please classify the records by GI50 using these ranges: lower segment = under 6 µM, middle segment = from 6 µM up to 10 µM, upper segment = 10 µM and over

# bin lookup: classify C/C=C(/C)C(=O)O[C@H]1[C@H](OC(C)=O)[C@]2(CO)[C@H](O)C[C@]3(C)C(=CC[C@@H]4[C@@]5(C)CC[C@H](O[C@@H]6O[C@H](C(=O)O)[C@@H](O)[C@H](O[C@@H]7OC[C@H](O)[C@H](O)[C@H]7O)[C@H]6O[C@@H]6O[C@H](CO)[C@@H](O)[C@H](O)[C@H]6O)C(C)(C)[C@@H]5CC[C@]43C)[C@@H]2CC1(C)C [ERYNGIIOSIDE L] by its GI50 middle segment

Here is the next molecule: C/C=C(/C)C(=O)O[C@H]1[C@H](O)[C@]2(CO)[C@H](O)C[C@]3(C)C(=CC[C@@H]4[C@@]5(C)CC[C@H](O[C@@H]6O[C@H](C(=O)O)[C@@H](O)[C@H](O[C@@H]7O[C@@H](CO)[C@H](O)[C@H]7O)[C@H]6O)[C@](C)(CO)[C@@H]5CC[C@]43C)[C@@H]2CC1(C)C [AESCULIOSIDE IID] upper segment

Here is the next molecule: C/C=C(\C)C(=O)O[C@H]1[C@H](OC(=O)/C(C)=C/C)[C@]2(CO)[C@H](O)[C@H](O)[C@]3(C)C(=CC[C@@H]4[C@@]5(C)CC[C@H](O[C@@H]6O[C@H](C(=O)O)[C@@H](O)[C@H](O[C@@H]7O[C@@H](CO)[C@H](O)[C@H]7O)[C@H]6O[C@@H]6O[C@H](CO)[C@@H](O)[C@H](O)[C@H]6O)[C@](C)(CO)[C@@H]5CC[C@]43C)[C@@H]2CC1(C)C [AESCULIOSIDE IIID] upper segment

One more molecule: C/C=C(/C)C(=O)O[C@H]1[C@H](O)[C@]2(CO)[C@H](O)[C@H](O)[C@]3(C)C(=CC[C@@H]4[C@@]5(C)CC[C@H](O[C@@H]6O[C@H](C(=O)O)[C@@H](O)[C@H](O[C@@H]7OC[C@@H](O)[C@H](O)[C@H]7O)[C@H]6O[C@@H]6O[C@H](CO)[C@@H](O)[C@H](O)[C@H]6O)C(C)(C)[C@@H]5CC[C@]43C)[C@@H]2CC1(C)C [ERYNGIOSIDE 94A] middle segment

Same for C/C=C(\C)C(=O)O[C@H]1[C@H](OC(=O)/C(C)=C/C)[C@]2(CO)[C@H](O)[C@H](O)[C@]3(C)C(=CC[C@@H]4[C@@]5(C)CC[C@H](O[C@@H]6O[C@H](C(=O)O)[C@@H](O)[C@H](O[C@@H]7O[C@@H](CO)[C@H](O)[C@H]7O)[C@H]6O[C@@H]6O[C@H](CO)[C@@H](O)[C@H](O)[C@H]6O)C(C)(C)[C@@H]5CC[C@]43C)[C@@H]2CC1(C)C [AESCULIOSIDE IIIF] upper segment

# repeat for C/C=C(/C)C(=O)O[C@H]1[C@H](O)[C@]2(CO)[C@H](O)C[C@]3(C)C(=CC[C@@H]4[C@@]5(C)CC[C@H](O)[C@](C)(CO)[C@@H]5CC[C@]43C)[C@@H]2CC1(C)C lower segment

Further, for C/C=C(/C)C(=O)O[C@H]1[C@H](O)[C@]2(COC(C)=O)[C@H](O)C[C@]3(C)C(=CC[C@@H]4[C@@]5(C)CC[C@H](O[C@@H]6O[C@H](C(=O)O)[C@@H](O)[C@H](O[C@@H]7O[C@@H](CO)[C@H](O)[C@H]7O)[C@H]6O[C@@H]6O[C@H](CO)[C@@H](O)[C@H](O)[C@H]6O)[C@](C)(CO)[C@@H]5CC[C@]43C)[C@@H]2CC1(C)C [AESCULIOSIDE IIIA] ? middle segment

And the next one, C/C=C(/C)C(=O)O[C@H]1[C@H](OC(C)=O)[C@]2(CO)[C@H](O)[C@H](O)[C@]3(C)C(=CC[C@@H]4[C@@]5(C)CC[C@H](O[C@@H]6O[C@H](C(=O)O)[C@@H](O)[C@H](O[C@@H]7OC[C@@H](O)[C@H](O)[C@H]7O)[C@H]6O[C@@H]6O[C@H](CO)[C@@H](O)[C@H](O)[C@H]6O)C(C)(C)[C@@H]5CC[C@]43C)[C@@H]2CC1(C)C [ERYNGIIOSIDE J] ? lower segment
